Provenance of the data: patent US20200109188A1

# study_system: HA of ca A/Hong Kong/213/03 (H5N1) virus (influenza A virus)
# test_summary: cell-based or functional assay

{"binder": "Antibody 3 (antibody, V domains shown) VH: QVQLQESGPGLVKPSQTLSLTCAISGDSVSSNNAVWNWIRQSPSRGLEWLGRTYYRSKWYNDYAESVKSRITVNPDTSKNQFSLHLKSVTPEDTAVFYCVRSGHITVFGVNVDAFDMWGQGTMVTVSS VL: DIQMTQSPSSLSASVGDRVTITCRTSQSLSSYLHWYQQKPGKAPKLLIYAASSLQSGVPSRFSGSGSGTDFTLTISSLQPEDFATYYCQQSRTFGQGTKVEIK", "Neutralization IC50, H5-HK03 / µg/mL": 4.64}
